# TESTED TARGET: Muscarinic acetylcholine receptor M3 (Homo sapiens) (UniProt P20309)
# Sequence (P20309 whole entry, looked up): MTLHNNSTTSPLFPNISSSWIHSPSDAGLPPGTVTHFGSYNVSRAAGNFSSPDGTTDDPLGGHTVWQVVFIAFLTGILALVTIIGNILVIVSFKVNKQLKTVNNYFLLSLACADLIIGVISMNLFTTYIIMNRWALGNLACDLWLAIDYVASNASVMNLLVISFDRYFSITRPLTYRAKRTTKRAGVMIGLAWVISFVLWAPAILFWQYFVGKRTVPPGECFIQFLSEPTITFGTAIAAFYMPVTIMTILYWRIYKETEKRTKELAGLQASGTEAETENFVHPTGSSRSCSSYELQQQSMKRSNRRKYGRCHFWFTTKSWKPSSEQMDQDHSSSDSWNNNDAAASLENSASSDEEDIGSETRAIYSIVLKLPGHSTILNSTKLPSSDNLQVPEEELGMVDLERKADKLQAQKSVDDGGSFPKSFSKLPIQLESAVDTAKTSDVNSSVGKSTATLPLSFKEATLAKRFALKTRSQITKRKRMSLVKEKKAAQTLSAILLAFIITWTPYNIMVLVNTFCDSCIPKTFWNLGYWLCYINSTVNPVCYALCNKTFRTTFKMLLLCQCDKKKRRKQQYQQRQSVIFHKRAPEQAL
# PROCEDURE DETAILS: ACh EC20 potentiation across mAChRs – cell-based, calcium flux, selectivity assay for M5 allosteric modulator project, profiling panel (AID 2204)
# MEASUREMENT CONTEXT: CHO-K1 mAChR panel, Fluo-4 calcium flux
Please provide measured pEC50 for the entries that follow.
Reminder that pEC50 is minus the log10 of a molar concentration.

Input: Answer with reported pEC50 of O=C1C(=O)N(Cc2ccc(-c3ccccc3)cc2)c2cc(OC(F)(F)F)ccc21
Output: 5.51

Input: Determine from records and report pEC50 for COc1ccc(CN2C(=O)C(=O)c3cc(OC(F)(F)F)ccc32)cc1
Output: 3.96

Input: Consider the compound COc1ccc(CN2C(=O)C(=O)c3ccc(OC(F)(F)F)cc32)cc1 . State its measured pEC50.
Output: 4.99

Input: Specify pEC50 for O=C1C(=O)N(Cc2ccc(Br)cc2)c2ccccc21 and stop.
Output: 5.20

###

# TESTED TARGET: Muscarinic acetylcholine receptor M5 (Homo sapiens)
# PROCEDURE DETAILS: ACh EC20 potentiation across mAChRs – cell-based, calcium flux, selectivity assay for M5 allosteric modulator project, profiling panel (AID 2204)
# MEASUREMENT CONTEXT: CHO-K1 mAChR panel, Fluo-4 calcium flux
RECORDED ENDPOINT: EC50 (µM)
The figure you give is taken to be in µM; do not add the unit.

Input: Give recorded EC50. Cn1cc(-c2ccc(CN3C(=O)C(=O)c4cc(OC(F)(F)F)ccc43)cc2)cn1
Output: 3.26

Input: Quick one: give measured EC50 for O=C1C(=O)N(Cc2ccc(Br)cc2)c2ccccc21
Output: 4.08

Input: Supply recorded EC50 for O=C1C(=O)N(Cc2ccc(-c3ccccc3)cc2)c2ccc(OC(F)(F)F)cc21 here.
Output: 2.66

Input: Give the reported EC50 for this compound. COc1ccccc1-c1ccc(CN2C(=O)C(=O)c3cc(OC(F)(F)F)ccc32)cc1
Output: 3.86

Input: For the compound O=C1C(=O)N(Cc2ccc(Oc3ccccc3)cc2)c2ccc(OC(F)(F)F)cc21 , give its measured EC50 value.
Output: 1.92

Input: Provide EC50 value for the following compound: O=C1C(=O)N(Cc2ccc(-c3ccc(F)nc3)cc2)c2ccc(OC(F)(F)F)cc21
Output: 3.59

###

# TESTED TARGET: Muscarinic acetylcholine receptor M5 (Homo sapiens)
# PROCEDURE DETAILS: ACh EC20 potentiation across mAChRs – cell-based, calcium flux, selectivity assay for M5 allosteric modulator project, profiling panel (AID 2204)
# MEASUREMENT CONTEXT: CHO-K1 mAChR panel, Fluo-4 calcium flux
Would you kindly list EC50 for each of these molecules?
The reply should contain only the number, in nM.

Input: Check the records and state EC50 for O=C1C(=O)N(Cc2ccc(-c3ccccc3)cc2)c2cc(OC(F)(F)F)ccc21
Output: 2650

Input: Provide EC50 value for the following molecule: COc1ccc(CN2C(=O)C(=O)c3ccc(OC(F)(F)F)cc32)cc1
Output: 5680

Input: Please give the documented EC50 of O=C1C(=O)N(Cc2ccc(-c3ccc(Cl)nc3)cc2)c2ccc(OC(F)(F)F)cc21
Output: 4840

Input: Write down EC50 measured for item O=C1C(=O)N(Cc2ccc(-c3ccsc3)cc2)c2ccc(OC(F)(F)F)cc21
Output: 2770

Input: Complete the entry with EC50 for COc1ccc(CN2C(=O)C(=O)c3cc(OC(F)(F)F)ccc32)cc1
Output: 1160
